Each entry below carries its recorded activity (%).
Target: AMPA receptor (human GluR1 flip/stargazin expressed in CHO-K1 cells) (Homo sapiens)
Construct: expressed in transfected cells; host or cells: CHO-K1
Sequence (P42261 19-906 isoform P42261-2 limits assumed): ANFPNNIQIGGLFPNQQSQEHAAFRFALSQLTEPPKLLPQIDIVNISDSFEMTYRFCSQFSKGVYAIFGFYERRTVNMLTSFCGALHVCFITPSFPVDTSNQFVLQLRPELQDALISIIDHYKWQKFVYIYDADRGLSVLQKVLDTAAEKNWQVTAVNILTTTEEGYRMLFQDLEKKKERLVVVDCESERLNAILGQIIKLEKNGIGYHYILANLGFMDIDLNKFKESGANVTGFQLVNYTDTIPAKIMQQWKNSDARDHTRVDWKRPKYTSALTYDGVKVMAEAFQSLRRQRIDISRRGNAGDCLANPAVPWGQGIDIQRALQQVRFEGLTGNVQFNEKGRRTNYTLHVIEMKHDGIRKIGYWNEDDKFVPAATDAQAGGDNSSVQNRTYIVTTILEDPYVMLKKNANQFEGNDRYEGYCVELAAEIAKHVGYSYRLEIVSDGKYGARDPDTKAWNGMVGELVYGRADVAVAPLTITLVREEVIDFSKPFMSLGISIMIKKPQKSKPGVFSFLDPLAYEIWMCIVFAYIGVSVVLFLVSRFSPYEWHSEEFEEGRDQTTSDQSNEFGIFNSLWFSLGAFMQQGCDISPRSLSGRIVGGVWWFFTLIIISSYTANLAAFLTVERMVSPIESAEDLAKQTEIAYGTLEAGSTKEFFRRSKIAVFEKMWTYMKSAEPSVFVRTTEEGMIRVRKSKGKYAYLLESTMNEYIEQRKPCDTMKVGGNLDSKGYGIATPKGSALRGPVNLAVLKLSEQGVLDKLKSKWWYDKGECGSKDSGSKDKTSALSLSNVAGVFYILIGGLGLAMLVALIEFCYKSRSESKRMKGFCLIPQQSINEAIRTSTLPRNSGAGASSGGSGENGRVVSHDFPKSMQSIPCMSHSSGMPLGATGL
Sequence (Q9Y698 whole entry partner): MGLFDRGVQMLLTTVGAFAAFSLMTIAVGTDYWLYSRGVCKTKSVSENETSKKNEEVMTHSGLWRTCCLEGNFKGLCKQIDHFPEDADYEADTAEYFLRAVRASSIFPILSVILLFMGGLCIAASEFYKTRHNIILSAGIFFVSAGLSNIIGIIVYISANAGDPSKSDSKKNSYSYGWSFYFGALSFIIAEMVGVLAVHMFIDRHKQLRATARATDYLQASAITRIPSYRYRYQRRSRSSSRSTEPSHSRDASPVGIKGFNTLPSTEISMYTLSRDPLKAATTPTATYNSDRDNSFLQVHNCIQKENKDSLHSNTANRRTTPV
Test: AMPA receptor function enhancing activity using calcium influx as index
Assay type: cell-based
Conditions: test compound 30 μM with 3 mM glutamic acid, change in fluorescence level in 3 min, 100% = 3 mM glutamic acid + 300 μM cyclothiazide, 0% = 3 mM glutamic acid only
Report the figure in % without appending any unit label.

Here are 7 compounds together with their reported answers.
| compound | tgt | unit spec | activity (%) |
| --- | --- | --- | --- |
| O=S1(=O)CCN2C=CC=C(c3ccc(Oc4cncc(C(F)(F)F)c4)cc3)C2=N1 | AMPA receptor (human GluR1 flip/stargazin expressed in CHO-K1 cells) (Homo sapiens) | % | 90 |
| O=S1(=O)CCN2CCCC(c3ccc(Oc4ccc(Cl)c(Cl)c4)cc3)C2=N1 (centres unmarked) [Example 152] | AMPA receptor (human GluR1 flip/stargazin expressed in CHO-K1 cells) (Homo sapiens) | % | 80 |
| COc1cccc(Oc2ccc([C@@H]3CCCN4CCS(=O)(=O)N=C34)cc2)c1 | AMPA receptor (human GluR1 flip/stargazin expressed in CHO-K1 cells) (Homo sapiens) | % | 83 |
| O=S1(=O)CCN2C=CC=C(c3ccc(C(F)(F)c4ccccc4)cc3)C2=N1 | AMPA receptor (human GluR1 flip/stargazin expressed in CHO-K1 cells) (Homo sapiens) | % | 56 |
| CC1(C)Cc2cc(C3=CC=CN4CCS(=O)(=O)N=C34)ccc2C1=O | AMPA receptor (human GluR1 flip/stargazin expressed in CHO-K1 cells) (Homo sapiens) | % | 73 |
| COc1cc(Oc2ccc(C3CCCN4CCS(=O)(=O)N=C34)cc2)ccc1Cl (centres unmarked) | AMPA receptor (human GluR1 flip/stargazin expressed in CHO-K1 cells) (Homo sapiens) | % | 63 |
| N#Cc1ccc(Oc2ccc(C3CCCN4CCS(=O)(=O)N=C34)cc2)cc1Cl (centres unmarked) | AMPA receptor (human GluR1 flip/stargazin expressed in CHO-K1 cells) (Homo sapiens) | % | 91 |

# evaluate next
Query: Which activity (%) is reported with AMPA receptor (human GluR1 flip/stargazin expressed in CHO-K1 cells) (Homo sapiens) for this entry: `CC1=CN2CCS(=O)(=O)N=C2C(c2ccc(Oc3ccccc3)cc2)=N1` ?
Reply: 78

----------
observation type: melting point

| compound | melting point |
| --- | --- |
| CCc1ccc(Oc2ccc([C@@H]3CCCN4CCS(=O)(=O)N=C34)cc2)cc1 | 156 to 157 °C |
| O=S1(=O)CCN2C=CC(Cl)=C(c3ccc(Oc4ccccc4)cc3)C2=N1 | 283 to 284 °C |
| Cc1ccc(Oc2ccc(C3=CC=CN4CCS(=O)(=O)N=C34)cc2)cc1 [Example 107] | 248 to 249 °C |
| Cc1cc(F)ccc1Oc1ccc(C2=CC=CN3CCS(=O)(=O)N=C23)cc1 | 240 to 242 °C |
| CC1=CN2CCS(=O)(=O)N=C2C(c2ccc(Oc3ccccc3)cc2)=N1 | 92 to 92.5 °C |

Query: What melting point value was documented for this compound, `O=S1(=O)CCN2C=C(F)C=C(c3ccc(Oc4ccccc4)cc3)C2=N1` ?
Reply: 91.9 to 92 °C

Query: What melting point value was documented for this compound, CCC(C)c1ccc(C2=CC=CN3CCS(=O)(=O)N=C23)cc1 (stereo not drawn) ?
Reply: 237 to 239 °C

Query: What melting point value was documented for this compound, `O=S1(=O)CCN2C=CC=C(c3ccc(-c4ccccc4)s3)C2=N1` ?
Reply: 241 to 242 °C

Query: What melting point value was documented for this compound, `CC(C)Oc1ccc(C2=CC=CN3CCS(=O)(=O)N=C23)cc1` ?
Reply: 245 to 247 °C

----------
Each entry below carries its recorded melting point.

| molecule | reading |
| --- | --- |
| CC(C)Oc1ccc(C2CCCN3CCS(=O)(=O)N=C23)cc1 (centres unmarked) | 191 to 192 °C |
| O=S1(=O)CCN2C=CC=C(c3ccc(OC(F)(F)F)cc3)C2=N1 | 249 to 251 °C |
| CC(C)(C)c1ccc(C2=CC=CN3CCS(=O)(=O)N=C23)cc1 | 291 to 292 °C |
| O=S1(=O)CCN2C=CC=C(c3ccc(OC4CCCCC4)cc3)C2=N1 [Example 182] | 272 to 274 °C |

# evaluate next
Query: What melting point value was documented for this molecule, `O=S1(=O)CCN2C=CN=C(c3ccc(OC4CCCCC4)cc3)C2=N1` ?
Reply: 239 to 240 °C

----------
Each entry below carries its recorded melting point.

| compound | reading |
| --- | --- |
| CC(C)c1ccc(C2CCCN3CCS(=O)(=O)N=C23)cc1 (stereo not drawn) [Example 42] | 198 to 203 °C |
| N#Cc1ccc(Oc2ccc(C3CCCN4CCS(=O)(=O)N=C34)cc2)cc1Cl (stereo not drawn) [Example 183] | 219 to 220 °C |
| O=S1(=O)CCN2CCCC(c3ccc(-c4ccccc4)cc3)C2=N1 (stereo not drawn) [Example 64] | 220 to 222 °C |
| CCc1ccc(Oc2ccc([C@H]3CCCN4CCS(=O)(=O)N=C34)cc2)cc1 [Example 217] | 152 to 153 °C |

Query: What melting point value was documented for this compound, COc1cccc(Oc2ccc([C@@H]3CCCN4CCS(=O)(=O)N=C34)cc2)c1 [Example 219] ?
Reply: 139 to 140 °C

Query: What melting point value was documented for this compound, O=S1(=O)CCN2C=CC=C(c3ccc(Oc4ccc(C(F)(F)F)cc4)cc3)C2=N1 [Example 200] ?
Reply: 253 to 255 °C

Query: What melting point value was documented for this compound, O=S1(=O)CCN2CCC[C@@H](c3ccc(Oc4ccccc4)cc3)C2=N1 [Example 63] ?
Reply: 174 to 175 °C

Query: What melting point value was documented for this compound, O=S1(=O)CCN2C=CC=C(c3ccc(Oc4ccc(O)cc4)cc3)C2=N1 [Example 198] ?
Reply: 289 to 290 °C

Query: What melting point value was documented for this compound, O=S1(=O)CCN2C=CC=C(c3ccc(-c4ccccc4)cc3)C2=N1 [Example 14] ?
Reply: 315 to 316 °C

----------
Each entry below carries its recorded activity (%).
Biological target: AMPA receptor (human GluR1 flip/stargazin expressed in CHO-K1 cells) (Homo sapiens)
Construct: expressed in transfected cells; host or cells: CHO-K1
Experiment: AMPA receptor function enhancing activity using calcium influx as index
Type: cell-based
Conditions: test compound 30 μM with 3 mM glutamic acid, change in fluorescence level in 3 min, 100% = 3 mM glutamic acid + 300 μM cyclothiazide, 0% = 3 mM glutamic acid only
Report the figure in % without appending any unit label.

| compound | unit spec | activity (%) |
| --- | --- | --- |
| CC1=CN2CCS(=O)(=O)N=C2C(c2ccc(OC3CCCCC3)cc2)=N1 | % | 70 |

Query: What activity (%) value was documented for this compound, `Cc1ccc(Oc2ccc([C@@H]3CCCN4CCS(=O)(=O)N=C34)cc2)cc1C` ?
Reply: 71

Query: What activity (%) value was documented for this compound, `O=S1(=O)CCN2C=CC=C(c3ccc(Oc4cccc(C(F)(F)F)c4)cc3)C2=N1` ?
Reply: 72

Query: What activity (%) value was documented for this compound, `O=S1(=O)CCN2CCC[C@@H](c3ccc(-c4ccc(F)c(Cl)c4)cc3)C2=N1` ?
Reply: 79

----------
Each entry below carries its recorded activity (%).
Biological target: AMPA receptor (human GluR1 flip/stargazin expressed in CHO-K1 cells) (Homo sapiens)
Construct: expressed in transfected cells; host or cells: CHO-K1
Test: AMPA receptor function enhancing activity using calcium influx as index
Type: cell-based
Details: test compound 30 μM with 3 mM glutamic acid, change in fluorescence level in 3 min, 100% = 3 mM glutamic acid + 300 μM cyclothiazide, 0% = 3 mM glutamic acid only
Please give the number followed by its unit.

Here are 3 compounds together with their reported answers.
| compound | activity (%) |
| --- | --- |
| O=S1(=O)CCN2CCCC(c3ccc(Oc4cccc(Cl)c4)cc3)C2=N1 (stereo not shown) | 74% |
| O=C1CCCCC1Oc1ccc(C2=CC=CN3CCS(=O)(=O)N=C23)cc1 (stereo not shown) | 85% |
| O=S1(=O)CCN2CCCC(c3ccc(-n4cccn4)cc3)C2=N1 (stereo not shown) | 79% |

# evaluate next
Query: What activity (%) value was documented for this compound, COc1cc(Oc2ccc(C3CC(C)CN4CCS(=O)(=O)N=C34)cc2)ccc1F (stereo not shown) ?
Reply: 69%

----------
Each entry below carries its recorded melting point.

Here are 4 molecules together with their reported answers.
| molecule | reading |
| --- | --- |
| O=S1(=O)CCN2CCC[C@H](c3ccc(Oc4ccccc4)cc3)C2=N1 [Example 62] | 171 to 176 °C |
| O=S1(=O)CCN2CCN[C@@H](c3ccc(Oc4ccccc4)cc3)C2=N1 [Example 212] | 124 to 125 °C |
| O=S1(=O)CCN2CCCC(c3ccc(-c4ccccc4)cc3)C2=N1 (centres unmarked) [Example 65] | 224 to 227 °C |
| CC(C)(C)c1ccc(C2CCCN3CCS(=O)(=O)N=C23)cc1 (centres unmarked) [Example 38] | 232 to 236 °C |

# evaluate next
Query: What melting point value was documented for this molecule, COC1=C(c2ccc(Oc3ccccc3)cc2)C2=NS(=O)(=O)CCN2C=C1 [Example 204] ?
Reply: 269 to 270 °C
